Data origin: ChEMBL document CHEMBL5543097

Assign MIC to each entry below.
tested on: Staphylococcus epidermidis; test: Antibacterial activity against erythromycin-resistant Staphylococcus epidermidis 19-9 assessed as inhibition of visible bacterial growth incubated for 18 hrs by broth microdilution method; assay type: functional
Give the value in µg/mL but do not write µg/mL after it.

Kindly note the recorded MIC for CC[C@H]1OC(=O)[C@@](C)(F)C(=O)[C@H](C)[C@@H](O[C@@H]2O[C@H](C)C[C@H](N(C)C)[C@H]2O)[C@](C)(OC)C[C@@H](C)C(=O)[C@H](C)[C@H]2N(CCCOC(=O)Nc3cccs3)C(=O)O[C@]12C , which is 0.5

Per the records, this molecule ( CC[C@H]1OC(=O)[C@@](C)(F)C(=O)[C@H](C)[C@@H](O[C@@H]2O[C@H](C)C[C@H](N(C)C)[C@H]2O)[C@](C)(OC)C[C@@H](C)C(=O)[C@H](C)[C@H]2N(CCCOC(=O)Nc3cccc(C)c3C)C(=O)O[C@]12C ) has MIC equal to 0.125

For this molecule ( CC[C@H]1OC(=O)[C@@](C)(F)C(=O)[C@H](C)[C@@H](O[C@@H]2O[C@H](C)C[C@H](N(C)C)[C@H]2O)[C@](C)(OC)C[C@@H](C)C(=O)[C@H](C)[C@H]2N(CCCOC(=O)Nc3cccc(C(F)(F)F)c3)C(=O)O[C@]12C ), measured MIC is 1

Recorded result, CC[C@H]1OC(=O)[C@H](C)[C@@H](O[C@H]2C[C@@](C)(OC)[C@@H](O)[C@H](C)O2)[C@H](C)[C@@H](O[C@@H]2O[C@H](C)C[C@H](N(C)C)[C@H]2O)[C@](C)(OC)C[C@@H](C)C(=O)[C@H](C)[C@@H](O)[C@]1(C)O , MIC: 16
